assay: Antiproliferative activity against human U266 cells measured after 3 days by MTS assay
Format: functional, cell-based
protocol-conditions: U-266, 72 h
observable: IC50 (µM)
Kindly provide the numeric value in µM only, without the unit symbol.

smiles-representation | endpoint-result
CCOC(=O)c1cc(-c2ccccc2)n2c1c(-c1ccc(CN3CCC(c4nc5ccc(F)cc5[nH]4)CC3)cc1)nc1ccccc12 | 4
CCOC(=O)c1cn2c(c(-c3ccc(CN4CCC(c5nc6ccc(F)cc6[nH]5)CC4)cc3)nc3ccccc32)c1-c1ccccc1 | 18

# ---- query compound ----
Endpoint output: IC50 of `CCOC(=O)c1cc(-c2ccccc2)n2c1c(-c1ccc(CN3CCC(n4c(=O)[nH]c5ccccc54)CC3)cc1)nc1ccccc12` . Value?
9
